Molecular target: β-ADRENOCEPTOR
Test: β-adrenoceptor binding ([125I]-pindolol)
Set-up: species or system guinea-pig
Settings: Table 4; IC50 and nM only stated in text; read-out: β-ADRENOCEPTOR
Structures can show the parent of a compound that is named as a salt.
RECORDED METRIC: IC50 (nM)
All answers are understood in nM, so give the number only.

Before answering, review these 3 worked examples.
| MOLECULE | TARGET OR SYSTEM | RECORDED METRIC | OBSERVED RESULT |
| --- | --- | --- | --- |
| O=C(OCCN1CCCC1)C1(c2ccccc2)CCCCC1 [Compound 8, hydrochloride] | β-ADRENOCEPTOR | IC50 | 85000 |
| O=C(OCCN1CCCCC1)C1(c2ccccc2)CCCCC1 [Compound 3, hydrochloride] | β-ADRENOCEPTOR | IC50 | 80400 |
| CCN(CC)CCOC(=O)C1(c2ccccc2)CCCCC1.Cl [Compound 15, hydrochloride] | β-ADRENOCEPTOR | IC50 | 81900 |

Identify measured IC50 obtained with β-ADRENOCEPTOR for CN(C)CCOC(=O)C1(c2ccccc2)CCCCC1.Cl [Compound 19, hydrochloride] .
85700

* * *

Biological target: SIGMA RECEPTOR (Cavia porcellus, UniProt Q60492)
Construct: Two milliter aliquots of the brain membrane preparation, containing 1.7 mg of protein; tissue Pel-Freeze (Rogers, Arkansas); host or cells: guinea-pig brains plus cerebella, membranes
Sequence (Q60492 whole entry): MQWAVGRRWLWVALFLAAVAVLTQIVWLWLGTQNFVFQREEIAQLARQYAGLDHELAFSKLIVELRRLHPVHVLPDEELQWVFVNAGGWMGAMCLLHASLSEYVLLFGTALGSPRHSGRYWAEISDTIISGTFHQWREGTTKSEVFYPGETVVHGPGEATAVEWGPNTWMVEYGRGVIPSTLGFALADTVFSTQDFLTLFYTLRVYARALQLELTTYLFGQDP
Assay: Sigma receptor binding assay ([3H]-d-SKF-10,047 displacement, brain membranes)
Set-up: species or system guinea-pig (male Hartley)
Settings: Table 2, aryl ring substituents; read-out: SIGMA RECEPTOR IC50
Quick rule for you: IC50 under 300 nM gets true, anything else gets false.

Here's what some known entries look like.
| STRUCTURE STRING | LABEL |
| --- | --- |
| COc1cccc(C2(CN3CCOCC3)CCCCC2)c1 | false |
| Oc1cccc(C2(CN3CCCCC3)CCCCC2)c1 | false |
| COc1ccc(C2(CN3CCOCC3)CCCCC2)cc1OC | false |
| Oc1cccc(C2(CN3CCOCC3)CCCCC2)c1 | false |
| O=[N+]([O-])c1ccc(C2(CN3CCCC3)CCCCC2)cc1 | true |
| CN(C)CC1(c2ccccc2)CCCCC1 | false |
| COc1ccc(C2(CN3CCCCC3)CCCCC2)cc1 | true |
| COc1cccc(C2(CN3CCCCC3)CCCCC2)c1 | false |

Below: the item to evaluate.
Input Cc1ccc(C2(CN3CCCCC3)CCCCC2)cc1 ; condition: IC50 strictly below 300 nM. Does it hold?
true

* * *

Target: PCP RECEPTOR
Test: PCP receptor binding assay ([3H]-TCP displacement, brain membranes)
Set-up: species or system guinea-pig (male Hartley)
Conditions: Table 1; mean ± error (n); read-out: PCP RECEPTOR IC50
Where a name gives a salt, the structure may show the parent alone.
RECORDED METRIC: IC50

| MOLECULE | RECORDED METRIC | OBSERVED RESULT |
| --- | --- | --- |
| c1ccc(C2(CN3CCOCC3)CCCCC2)cc1 | IC50 | > 25 µM |
| C[N+]1(CCOC(=O)C2(c3ccccc3)CCCCC2)CCCCC1 | IC50 | > 25 µM |
| O=C(OCCN1CCOCC1)C1(c2ccccc2)CCCCC1 [Compound 12, hydrochloride] | IC50 | > 100 µM |

Determine its reported IC50: CCN(CC)CC1(c2ccccc2)CCCCC1
> 25 µM

* * *

Biological target: SIGMA RECEPTOR (Cavia porcellus, UniProt Q60492)
Construct: Two milliter aliquots of the brain membrane preparation, containing 1.7 mg of protein; tissue Pel-Freeze (Rogers, Arkansas); host or cells: guinea-pig brains plus cerebella, membranes
Assay: Sigma receptor binding assay ([3H]-d-SKF-10,047 displacement, brain membranes)
Set-up: species or system guinea-pig (male Hartley)
Conditions: Table 2
Listed next: entries and their corresponding SIGMA RECEPTOR SLOPE.
Returns: the value as a bare number; no unit string appended.

Before answering, review these 5 worked examples.
| COMPOUND | SIGMA RECEPTOR SLOPE |
| --- | --- |
| COc1cccc(C2(CN(C)C)CCCCC2)c1 [Compound 42] | 0.70 |
| CN(C)CC1(c2ccccc2)CCCCC1 [Compound 18] | 0.85 |
| O=[N+]([O-])c1ccc(C2(CN3CCCCC3)CCCCC2)cc1 [Compound 24] | 0.47 |
| Clc1cccc(C2(CN3CCCCC3)CCCCC2)c1 [Compound 25] | 0.69 |
| Cc1ccc(C2(CN3CCCCC3)CCCCC2)cc1 [Compound 23] | 0.69 |

Determine its reported SIGMA RECEPTOR SLOPE: COc1cccc(C2(CN3CCCC3)CCCCC2)c1 [Compound 33]
0.73

Determine its reported SIGMA RECEPTOR SLOPE: COc1ccc(C2(CN3CCCC3)CCCCC2)cc1OC [Compound 35]
0.66

Determine its reported SIGMA RECEPTOR SLOPE: COc1ccc(C2(CN3CCCC3)CCCCC2)cc1 [Compound 34]
0.80

Determine its reported SIGMA RECEPTOR SLOPE: Cc1ccc(C2(CN(C)C)CCCCC2)cc1 [Compound 41]
0.62

Determine its reported SIGMA RECEPTOR SLOPE: c1ccc(C2(CN3CCCC3)CCCCC2)cc1 [Compound 6]
0.88

Determine its reported SIGMA RECEPTOR SLOPE: Oc1cccc(C2(CN3CCCC3)CCCCC2)c1 [Compound 29]
0.80

Determine its reported SIGMA RECEPTOR SLOPE: Oc1ccc(C2(CN3CCCC3)CCCCC2)cc1 [Compound 30]
0.78

Determine its reported SIGMA RECEPTOR SLOPE: COc1cccc(C2(CN3CCCCC3)CCCCC2)c1 [Compound 26]
0.74

Determine its reported SIGMA RECEPTOR SLOPE: COc1ccc(C2(CN3CCCCC3)CCCCC2)cc1OC [Compound 28]
0.56

Determine its reported SIGMA RECEPTOR SLOPE: COc1ccc(C2(CN3CCCCC3)CCCCC2)cc1 [Compound 27]
0.69

Determine its reported SIGMA RECEPTOR SLOPE: Clc1cccc(C2(CN3CCCC3)CCCCC2)c1 [Compound 32]
0.73
